Each recorded value in this set is attributed to patent US7786137B2.

molecular target: NaV1.3 (Homo sapiens, UniProt Q9NY46); assay: VIPR optical membrane potential assay, NaV1.3 inhibition; assay type: cell-based; design: expressed in transfected cells; host or cells: HEK293; conditions: activity against NaV 1.3 channel
Sequence (Q9NY46 whole entry): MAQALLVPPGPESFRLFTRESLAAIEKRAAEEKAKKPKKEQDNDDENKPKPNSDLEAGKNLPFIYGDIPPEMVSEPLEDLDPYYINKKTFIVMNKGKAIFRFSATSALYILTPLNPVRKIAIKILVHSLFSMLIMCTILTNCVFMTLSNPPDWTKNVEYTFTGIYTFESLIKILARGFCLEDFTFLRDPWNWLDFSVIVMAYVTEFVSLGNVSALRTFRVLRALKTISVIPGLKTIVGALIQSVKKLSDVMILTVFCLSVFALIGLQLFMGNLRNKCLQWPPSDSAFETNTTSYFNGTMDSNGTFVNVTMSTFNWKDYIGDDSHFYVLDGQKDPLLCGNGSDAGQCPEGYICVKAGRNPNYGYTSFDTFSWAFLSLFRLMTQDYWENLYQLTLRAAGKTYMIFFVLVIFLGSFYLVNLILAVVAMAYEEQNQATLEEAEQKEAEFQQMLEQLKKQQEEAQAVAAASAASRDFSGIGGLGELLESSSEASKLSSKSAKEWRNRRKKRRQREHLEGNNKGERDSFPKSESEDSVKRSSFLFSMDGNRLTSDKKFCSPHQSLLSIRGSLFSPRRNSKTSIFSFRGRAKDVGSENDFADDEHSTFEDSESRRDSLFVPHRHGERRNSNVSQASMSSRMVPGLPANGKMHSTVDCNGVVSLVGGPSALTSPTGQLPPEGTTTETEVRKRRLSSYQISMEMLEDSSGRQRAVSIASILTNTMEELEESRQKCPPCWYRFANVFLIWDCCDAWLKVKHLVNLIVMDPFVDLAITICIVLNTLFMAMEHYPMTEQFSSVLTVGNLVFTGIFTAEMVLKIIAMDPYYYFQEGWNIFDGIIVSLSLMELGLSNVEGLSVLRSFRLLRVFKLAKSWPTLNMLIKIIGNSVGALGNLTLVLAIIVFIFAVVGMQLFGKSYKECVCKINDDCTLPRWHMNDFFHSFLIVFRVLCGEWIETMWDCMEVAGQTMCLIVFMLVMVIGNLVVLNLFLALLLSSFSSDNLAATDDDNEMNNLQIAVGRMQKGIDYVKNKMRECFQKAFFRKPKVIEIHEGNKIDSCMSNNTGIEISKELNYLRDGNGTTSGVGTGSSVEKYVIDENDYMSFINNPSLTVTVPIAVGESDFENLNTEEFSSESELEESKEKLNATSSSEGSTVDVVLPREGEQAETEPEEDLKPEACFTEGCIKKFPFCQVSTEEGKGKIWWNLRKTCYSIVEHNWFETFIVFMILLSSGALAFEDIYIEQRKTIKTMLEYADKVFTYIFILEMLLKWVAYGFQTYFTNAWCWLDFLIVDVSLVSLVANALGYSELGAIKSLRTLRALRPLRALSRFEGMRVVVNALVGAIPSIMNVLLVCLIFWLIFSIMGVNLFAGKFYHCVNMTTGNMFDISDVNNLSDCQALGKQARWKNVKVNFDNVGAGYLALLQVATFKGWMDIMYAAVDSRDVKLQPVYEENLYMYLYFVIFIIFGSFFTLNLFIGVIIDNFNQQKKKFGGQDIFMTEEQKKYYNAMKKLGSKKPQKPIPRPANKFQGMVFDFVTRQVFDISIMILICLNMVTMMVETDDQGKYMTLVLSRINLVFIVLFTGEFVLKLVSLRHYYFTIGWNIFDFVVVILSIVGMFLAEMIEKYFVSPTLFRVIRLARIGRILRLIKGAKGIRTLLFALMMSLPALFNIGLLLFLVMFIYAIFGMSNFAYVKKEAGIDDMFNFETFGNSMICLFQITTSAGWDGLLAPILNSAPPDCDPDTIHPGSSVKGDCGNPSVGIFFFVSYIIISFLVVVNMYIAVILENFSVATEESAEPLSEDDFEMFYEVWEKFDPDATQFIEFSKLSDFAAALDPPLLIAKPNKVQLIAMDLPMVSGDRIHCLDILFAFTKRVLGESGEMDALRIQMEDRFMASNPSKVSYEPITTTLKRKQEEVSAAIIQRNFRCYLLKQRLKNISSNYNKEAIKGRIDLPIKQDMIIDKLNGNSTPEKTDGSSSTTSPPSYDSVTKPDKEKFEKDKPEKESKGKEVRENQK
Each entry below carries its reported IC50.

| Molecule | IC50 |
| --- | --- |
| O=C(CN1CCCc2ccccc21)N1CCCc2cc(S(=O)(=O)Nc3nccs3)ccc21 [Compound 101] | > 5 µM |
| O=C(c1c(F)cc(F)cc1F)N1CCCc2cc(S(=O)(=O)Nc3nccs3)ccc21 [Compound 76] | > 5 µM |
| O=C(COc1ccc(F)c(Cl)c1)N1CCCc2cc(S(=O)(=O)Nc3ncns3)ccc21 [Compound 36] | 2 to 5 µM |
| O=C(Cn1ccc2cccc(Cl)c21)N1Cc2ccc(S(=O)(=O)Nc3ccncn3)cc2C1 [Compound 56] | < 2 µM |
| O=C(COc1ccnc2c(C(F)(F)F)cccc12)N1CCc2ccc(S(=O)(=O)Nc3nncs3)cc2C1 [Compound 45] | > 5 µM |
| Cc1ccc(OCC(=O)N2CCc3cc(S(=O)(=O)Nc4nccs4)ccc32)c(C)c1 [Compound 60] | < 2 µM |
| O=C(c1ccc(F)cc1)N1CCc2ccc(S(=O)(=O)Nc3nccs3)cc2C1 [Compound 119] | > 5 µM |
| CC(Oc1ccccc1)C(=O)N1CCc2ccc(S(=O)(=O)Nc3nccs3)cc2C1 (centres unmarked) [Compound 8] | > 5 µM |
| O=S(=O)(Nc1nccs1)c1ccc2c(c1)CCN2CCNc1cnc2ccccc2c1 [Compound 22] | > 5 µM |
| O=C(COc1ccc(Cl)cc1)N1CCc2cc(S(=O)(=O)Nc3nccs3)ccc21 [Compound 49] | < 2 µM |
| COc1ccc(NCC(=O)N2CCc3cc(S(=O)(=O)Nc4nccs4)ccc32)cc1F [Compound 184] | > 5 µM |
| O=C(CNc1ccccc1F)N1CCc2cc(S(=O)(=O)Nc3nccs3)ccc21 [Compound 144] | < 2 µM |
| CC(Oc1ccc(OC(F)(F)F)cc1)C(=O)N1CCc2ccc(S(=O)(=O)Nc3nccs3)cc2C1 (centres unmarked) [Compound 141] | > 5 µM |
| O=C(c1ccc(Cl)c(Cl)c1)N1CCc2cc(S(=O)(=O)Nc3ncns3)ccc21 [Compound 89] | < 2 µM |
| Cc1ccc(F)c(C(=O)n2ccc3cc(S(=O)(=O)Nc4nccs4)ccc32)c1 [Compound 195] | 2 to 5 µM |
| CC(C(=O)N1CCc2cc(S(=O)(=O)Nc3nccs3)ccc21)n1ccc2ccccc21 (centres unmarked) [Compound 204] | < 2 µM |
| COc1ccc(OC(=O)N2CCc3cc(S(=O)(=O)Nc4nccs4)ccc32)cc1 [Compound 80] | > 5 µM |

----------
molecular target: NaV1.3 (Homo sapiens, UniProt Q9NY46); test: VIPR optical membrane potential assay, NaV1.3 inhibition; format: cell-based; parameters: expressed in transfected cells; host or cells: HEK293; conditions: activity against NaV 1.3 channel
pIC50: −log10 of the molar value.
Experimental Endpoint: pIC50

| Compound | Tested On | Value |
| --- | --- | --- |
| Cc1ccc(OCC(=O)N2Cc3ccc(S(=O)(=O)Nc4nccs4)cc3C2)cc1C [Compound 190] | NaV1.3 (Homo sapiens, UniProt Q9NY46) | > 5.70 |
| C[C@H](C(=O)N1CCc2cc(S(=O)(=O)Nc3ncns3)ccc21)n1ccc2ccccc21 [Compound 202] | NaV1.3 (Homo sapiens, UniProt Q9NY46) | > 5.70 |
| O=C(Oc1ccccc1)N1CCc2cc(S(=O)(=O)Nc3nccs3)ccc21 [Compound 163] | NaV1.3 (Homo sapiens, UniProt Q9NY46) | 5.30 to 5.70 |
| COc1ccc(F)cc1C(=O)n1ccc2cc(S(=O)(=O)Nc3nccs3)ccc21 [Compound 110] | NaV1.3 (Homo sapiens, UniProt Q9NY46) | 5.30 to 5.70 |
| O=C(CCc1ccccc1)n1ccc2cc(S(=O)(=O)Nc3nccs3)ccc21 [Compound 189] | NaV1.3 (Homo sapiens, UniProt Q9NY46) | > 5.70 |
| O=C(c1ccc(C(F)(F)F)cc1)N1CCc2cc(S(=O)(=O)Nc3nccs3)ccc21 [Compound 166] | NaV1.3 (Homo sapiens, UniProt Q9NY46) | > 5.70 |
| C[C@H](C(=O)N1Cc2ccc(S(=O)(=O)Nc3ccc(Cl)nn3)cc2C1)n1ccc2c(F)cccc21 [Compound 58] | NaV1.3 (Homo sapiens, UniProt Q9NY46) | < 5.30 |
| O=C(c1ccccc1Cl)N1CCc2cc(S(=O)(=O)Nc3nccs3)ccc21 [Compound 40] | NaV1.3 (Homo sapiens, UniProt Q9NY46) | < 5.30 |
| O=C(CCn1ccc2cc(Cl)ccc21)N1Cc2ccc(S(=O)(=O)Nc3nccs3)cc2C1 [Compound 177] | NaV1.3 (Homo sapiens, UniProt Q9NY46) | > 5.70 |
| C[C@@H](C(=O)N1CCc2cc(S(=O)(=O)Nc3ncns3)ccc21)n1ccc2ccccc21 [Compound 130] | NaV1.3 (Homo sapiens, UniProt Q9NY46) | < 5.30 |
| O=C(c1cccc(Cl)c1)N1CCc2cc(S(=O)(=O)Nc3nccs3)ccc21 [Compound 50] | NaV1.3 (Homo sapiens, UniProt Q9NY46) | > 5.70 |
| CC(Oc1ccccc1Cl)C(=O)N1CCc2cc(S(=O)(=O)Nc3ncns3)ccc21 (centres unmarked) [Compound 185] | NaV1.3 (Homo sapiens, UniProt Q9NY46) | > 5.70 |
| Cc1cccc(C)c1OCC(=O)N1CCc2cc(S(=O)(=O)Nc3nccs3)ccc21 [Compound 138] | NaV1.3 (Homo sapiens, UniProt Q9NY46) | > 5.70 |
| COc1cccc(NCC(=O)N2CCc3cc(S(=O)(=O)Nc4nccs4)ccc32)c1 [Compound 165] | NaV1.3 (Homo sapiens, UniProt Q9NY46) | < 5.30 |
| O=C(c1ccc(F)cc1F)N1CCc2cc(S(=O)(=O)Nc3ncns3)ccc21 [Compound 118] | NaV1.3 (Homo sapiens, UniProt Q9NY46) | < 5.30 |
| O=C(COc1cccc(Cl)c1Cl)N1CCc2cc(S(=O)(=O)Nc3nccs3)ccc21 [Compound 67] | NaV1.3 (Homo sapiens, UniProt Q9NY46) | > 5.70 |
| Cc1ccccc1CNCC(=O)N1CCc2cc(S(=O)(=O)Nc3nccs3)ccc21 [Compound 35] | NaV1.3 (Homo sapiens, UniProt Q9NY46) | 5.30 to 5.70 |

----------
Molecular target: UniProt Q9NY46
Assay: VIPR optical membrane potential assay, NaV1.3 inhibition
Assay type: cell-based
Set-up: expressed in transfected cells; host or cells: HEK293
Conditions: activity against NaV 1.3 channel
Experimental: Antagonist properties of test compounds were assessed as follows. Cells expressing the NaV of interest were placed into microtiter plates. […] The cells were stimulated with either a chemical or electrical means to evoke a NaV dependent membrane potential change from unblocked channels, which was detected and measured with trans-membrane potential-sensitive dyes. Antagonists were detected as a decreased membrane potential response to the stimulus. […]
pIC50: −log10 of the molar value.

| Molecule | pIC50 |
| --- | --- |
| O=C(COc1cccc(Cl)c1)N1Cc2ccc(S(=O)(=O)Nc3nccs3)cc2C1 | > 5.70 |
| O=C(COc1ccc(F)c(Cl)c1)N1CCc2cc(S(=O)(=O)Nc3ncns3)ccc21 | > 5.70 |
| O=C(c1cc(Cl)ccc1Cl)n1ccc2cc(S(=O)(=O)Nc3nccs3)ccc21 | 5.30 to 5.70 |
| CC(Oc1cc(Cl)ccc1Cl)C(=O)N1CCc2cc(S(=O)(=O)Nc3nccs3)ccc21 (centres unmarked) | > 5.70 |
| O=C(COc1ccc(F)cc1)N1CCc2cc(S(=O)(=O)Nc3nccs3)ccc21 | > 5.70 |
| Cc1ccc(OCC(=O)N2CCc3cc(S(=O)(=O)Nc4nccs4)ccc32)cc1C | > 5.70 |
| Cc1ccc(F)c(C(=O)N2CCc3cc(S(=O)(=O)Nc4nccs4)ccc32)c1 | < 5.30 |
| C[C@H](C(=O)N1Cc2ccc(S(=O)(=O)Nc3ccc(Cl)nn3)cc2C1)N1CCCc2cc(Cl)ccc21 | < 5.30 |

----------
target: NaV1.3 (Homo sapiens, UniProt Q9NY46); test: VIPR optical membrane potential assay, NaV1.3 inhibition; assay type: cell-based; design: expressed in transfected cells; host or cells: HEK293; settings: activity against NaV 1.3 channel
pIC50: −log10 of the molar value.

| Molecule | pIC50 |
| --- | --- |
| COc1cc(C(=O)N2CCc3cc(S(=O)(=O)Nc4nccs4)ccc32)ccc1C | 5.30 to 5.70 |
| CC(C)(C)c1ccc(OCC(=O)N2Cc3ccc(S(=O)(=O)Nc4nccs4)cc3C2)cc1 | > 5.70 |
| O=C(COc1ccc(F)c(Cl)c1)N1Cc2ccc(S(=O)(=O)Nc3nccs3)cc2C1 | > 5.70 |
| Cc1ccccc1CC(=O)N1CCc2cc(S(=O)(=O)Nc3nccs3)ccc21 | > 5.70 |
| Cc1ccc(C(=O)N2CCc3cc(S(=O)(=O)Nc4nccs4)ccc32)cc1 [Compound 7] | 5.30 to 5.70 |
| Cc1ccc(CNCC(=O)N2CCc3cc(S(=O)(=O)Nc4nccs4)ccc32)cc1 | 5.30 to 5.70 |
| O=C(COc1ccnc2c(C(F)(F)F)cccc12)N1Cc2ccc(S(=O)(=O)Nc3ncns3)cc2C1 | > 5.70 |
| O=C(c1ccccc1C(F)(F)F)n1ccc2cc(S(=O)(=O)Nc3nccs3)ccc21 | 5.30 to 5.70 |
| CC(C)(Oc1ccc(Cl)cc1)C(=O)N1CCc2cc(S(=O)(=O)Nc3nccs3)ccc21 | > 5.70 |
| O=C(ON1Cc2ccc(S(=O)(=O)Nc3nccs3)cc2C1)c1ccc(Cl)cc1 | > 5.70 |
| CCc1nnc(NS(=O)(=O)c2ccc3c(c2)CN(C(=O)[C@@H](C)n2ccc4c(F)cccc42)C3)s1 | 5.30 to 5.70 |
| COc1ccc(CC(=O)N2CCc3ccc(S(=O)(=O)Nc4nccs4)cc3C2)cc1 | < 5.30 |
| O=C(COc1ccc(OC(F)(F)F)cc1)N1CCc2cc(S(=O)(=O)Nc3ncns3)ccc21 | > 5.70 |
| Cc1cccc(CC(=O)N2CCc3cc(S(=O)(=O)Nc4nccs4)ccc32)c1 | > 5.70 |
| O=C(COc1ccc(F)c(Cl)c1)N1CCc2cc(S(=O)(=O)Nc3nccs3)ccc21 | > 5.70 |
| CC(C(=O)N1Cc2ccc(S(=O)(=O)Nc3nccs3)cc2C1)n1ccc2ccccc21 (centres unmarked) | > 5.70 |
| O=C(COc1ccccc1)N1CCCc2cc(S(=O)(=O)Nc3ncns3)ccc21 | < 5.30 |
